The origin of these recorded values is patent US9624198B2.

# target: human α2C receptor (Homo sapiens (Human))
# Sequence (P18825 whole entry): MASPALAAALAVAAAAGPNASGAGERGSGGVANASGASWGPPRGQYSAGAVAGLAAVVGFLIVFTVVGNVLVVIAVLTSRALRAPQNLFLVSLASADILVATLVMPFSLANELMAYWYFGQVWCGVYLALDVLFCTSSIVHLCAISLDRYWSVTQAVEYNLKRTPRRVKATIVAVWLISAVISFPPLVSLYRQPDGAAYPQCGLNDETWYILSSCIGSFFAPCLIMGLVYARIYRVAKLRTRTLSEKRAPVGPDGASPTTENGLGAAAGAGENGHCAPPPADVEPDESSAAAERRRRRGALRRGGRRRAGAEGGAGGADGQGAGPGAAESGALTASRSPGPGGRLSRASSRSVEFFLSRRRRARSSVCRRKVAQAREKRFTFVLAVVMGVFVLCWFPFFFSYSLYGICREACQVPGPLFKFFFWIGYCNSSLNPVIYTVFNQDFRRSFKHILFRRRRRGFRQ
# experiment_description: Antagonism against adrenoreceptor α2C (luminescence, recombinant CHO cell line, noradrenaline stimulation)
# measurement_context: 20 nM noradrenaline
observable: IC50 (nM)
Give bare numbers, in nM.

// solved cases for IC50 follow
{"compound": "CC1CN(c2ccc(C(=O)N3CCC(N4CCc5ccccc5C4)CC3)cn2)CC(C)O1 (centres unmarked) [Example 11]", "obs_value": 11}
{"compound": "O=C(O)[C@H]1CCCN1c1ccc(C(=O)N2CCC(N3CCc4ccccc4C3)CC2)cn1", "obs_value": 27}
{"compound": "O=C(c1ccc(N2CC3(C2)CS(=O)(=O)C3)nc1)N1CCC(N2CCc3ccccc3C2)CC1", "obs_value": 53}
{"compound": "CC1CN(c2ccc(C(=O)N3CCC(N4CCc5ccccc5C4)CC3)cn2)CC(C)O1 (centres unmarked) [Example 12]", "obs_value": 21}

I have 7 compounds here; please give me IC50 for each one.
1. CC[C@@H](CO)Nc1ccc(C(=O)N2CCC(N3CCc4ccccc4C3)CC2)cn1
2. COC[C@H]1CCCN1c1ccc(C(=O)N2CCC(N3CCc4ccccc4C3)CC2)cn1
3. COc1ccc2c(c1)CCN(C1CCN(C(=O)c3ccc(N4CCC(OC)C4)nc3)CC1)C2 (centres unmarked)
4. O=C(c1ccc(N2CCOCC2)nc1)N1CCC(N2CCc3ccccc3C2)CC1
5. CC1(C)CN(c2ccc(C(=O)N3CCC(N4CCc5ccccc5C4)CC3)cn2)CCO1
6. O=C(c1ccc(N2CCOC(C(F)(F)F)C2)nc1)N1CCC(N2CCc3ccccc3C2)CC1 (centres unmarked)
7. COC1CCN(c2ccc(C(=O)N3CCC(N4CCc5cc(F)ccc5C4)CC3)cn2)C1 (centres unmarked)

1: 21; 2: 65; 3: 11; 4: 9; 5: 53; 6: 23; 7: 58
